target system: B. subtilis Pol IIIC (Bacillus subtilis, UniProt P13267)
Construct: made in house
Sequence (P13267 whole entry): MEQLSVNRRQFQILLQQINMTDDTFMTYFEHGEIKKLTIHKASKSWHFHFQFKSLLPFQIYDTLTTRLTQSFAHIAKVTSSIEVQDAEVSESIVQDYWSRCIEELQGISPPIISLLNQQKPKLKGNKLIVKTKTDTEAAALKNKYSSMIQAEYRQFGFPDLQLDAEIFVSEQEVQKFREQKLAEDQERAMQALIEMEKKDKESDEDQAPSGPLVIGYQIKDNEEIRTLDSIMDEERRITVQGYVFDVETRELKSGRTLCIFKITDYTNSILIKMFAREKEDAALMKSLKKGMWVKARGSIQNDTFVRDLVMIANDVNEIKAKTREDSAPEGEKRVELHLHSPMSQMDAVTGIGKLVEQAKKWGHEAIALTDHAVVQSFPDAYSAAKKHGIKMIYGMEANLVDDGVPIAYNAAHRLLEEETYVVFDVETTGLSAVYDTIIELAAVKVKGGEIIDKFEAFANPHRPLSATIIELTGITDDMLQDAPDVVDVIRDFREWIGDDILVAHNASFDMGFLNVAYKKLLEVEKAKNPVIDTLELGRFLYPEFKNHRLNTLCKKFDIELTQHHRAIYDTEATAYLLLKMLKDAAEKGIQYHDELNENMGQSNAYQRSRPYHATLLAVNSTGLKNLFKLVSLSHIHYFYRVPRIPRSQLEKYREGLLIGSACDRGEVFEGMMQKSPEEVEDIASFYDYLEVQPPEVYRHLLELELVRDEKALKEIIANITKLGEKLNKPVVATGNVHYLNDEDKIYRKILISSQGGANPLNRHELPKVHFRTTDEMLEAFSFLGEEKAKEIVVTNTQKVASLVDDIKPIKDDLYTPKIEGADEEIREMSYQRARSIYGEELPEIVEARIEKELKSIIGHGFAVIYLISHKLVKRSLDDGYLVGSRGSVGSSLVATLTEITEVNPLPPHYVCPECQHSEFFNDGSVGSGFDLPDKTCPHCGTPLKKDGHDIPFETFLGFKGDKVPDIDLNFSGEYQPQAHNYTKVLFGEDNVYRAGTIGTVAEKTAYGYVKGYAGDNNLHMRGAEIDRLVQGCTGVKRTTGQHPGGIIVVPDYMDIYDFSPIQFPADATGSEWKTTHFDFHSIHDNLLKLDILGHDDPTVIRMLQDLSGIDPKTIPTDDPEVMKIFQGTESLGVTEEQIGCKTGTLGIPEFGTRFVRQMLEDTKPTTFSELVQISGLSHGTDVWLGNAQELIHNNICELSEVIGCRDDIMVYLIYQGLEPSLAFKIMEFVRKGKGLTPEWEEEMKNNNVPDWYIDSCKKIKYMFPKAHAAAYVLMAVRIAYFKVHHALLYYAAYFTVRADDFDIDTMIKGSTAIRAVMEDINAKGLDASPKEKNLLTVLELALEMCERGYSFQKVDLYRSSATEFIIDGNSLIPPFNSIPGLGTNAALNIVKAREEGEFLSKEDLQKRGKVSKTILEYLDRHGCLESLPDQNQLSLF
test name: Polymerase IIIC (Pol IIIC) assay, determination of Ki values
Format: biochemical
settings: Ki (µM) Pol IIIC, assay in absence of dGTP or dATP; Ki is the concentration that reduces control polymerase IIIC activity by 50 percent
Define the label as fulfilled when Ki is strictly less than 0.02 µM and as not fulfilled in all remaining cases.

Consider the following illustrative entries.
Cc1ccc(Nc2cc(=O)n(CCCCN3CCN(c4cc5c(cc4F)c(=O)c(C(=O)O)cn5C4CC4)CC3)c(=O)[nH]2)cc1Cl	not fulfilled
Cc1ccc(Nc2cc(=O)n(CCCCN3CCN(c4c(F)cc5c(=O)c(C(=O)O)cn(C6CC6)c5c4F)CC3)c(=O)[nH]2)cc1C	not fulfilled
Cc1ccc(Nc2cc(=O)n(CCCCN3CCN(c4c(F)cc5c(=O)c(C(=O)O)cn(C6CC6)c5c4F)CC3C)c(=O)[nH]2)cc1C (centres unmarked)	not fulfilled
CCc1cc(Nc2cc(=O)n(CCCCN3CCN(c4c(F)cc5c(=O)c(C(=O)O)cn(C6CC6)c5c4F)CC3CO)c(=O)[nH]2)ccc1C (centres unmarked)	fulfilled
CCc1cc(Nc2cc(=O)n(CCCCN3CCN(c4c(F)cc5c(=O)c(C(=O)O)cn(CC)c5c4Cl)CC3)c(=O)[nH]2)ccc1C	fulfilled
CCc1cc(Nc2cc(=O)n(CCCCN3CCN(c4cc5c(cc4F)c(=O)c(C(=O)O)cn5CC)CC3)c(=O)[nH]2)ccc1C	not fulfilled

Criterion: Ki strictly below 0.02 µM. Is it met by Cc1ccc(Nc2cc(=O)n(CCCCN3CCN(c4c(F)cc5c(=O)c(C(=O)O)cn(C6CC6)c5c4F)C[C@H]3C)c(=O)[nH]2)cc1C ? not fulfilled

Strictly below 0.02 µM in Ki? CCc1cc(Nc2cc(=O)n(CCCCN3CCN(c4c(F)cc5c(=O)c(C(=O)O)cn(CC)c5c4F)CC3)c(=O)[nH]2)ccc1C not fulfilled

---

Measured MIC, listed per entry.
Test system: S. aureus
test name: Minimal Inhibitory Concentration (MIC) determination, 96 well plates
Format: cell-based, Staphylococcus aureus
settings: Staphylococcus aureus; HBI medium, 16 to 18 hours at 37°C; read-out: MIC (µg/ml) S. aureus
Method: The following methods were used to characterize representative compounds. Minimal Inhibitory Concentration (MIC) determinations. MIC values were determined in 96 well plates, with bacterial growth monitored at OD 600 nm in 200µl following an initial bacterial seeding at approximately 1x10^5 colony forming units (CFU)/ml. Each drug is evaluated at five concentrations, with five data points at each dilution. […] DNA polymerase activity (or inhibition thereof) was measured in a 96-well plate format. […]
Record the value in µg/mL, omitting the unit from your answer.

Solved entries:
CCc1cc(Nc2ccc(CCCCN3CCN(c4cc5c(cc4F)c(=O)c(C(=O)O)cn5CC)CC3)c(=O)[nH]2)ccc1C	1.25
CCc1cc(Nc2cc(=O)n(CCCCCN3CCCC4CN(c5cc6c(cc5F)c(=O)c(C(=O)O)cn6C5CC5)CC43)c(=O)[nH]2)ccc1C (stereo not drawn)	2.5

Attention now shifts to the item below.
Name the recorded MIC of the item CCc1cc(Nc2cc(=O)n(CCCCN3CCN(c4cc5c(cc4F)c(=O)c(C(=O)O)cn5C4CC4)CC3)c(=O)[nH]2)ccc1C in your answer. 0.625

Value source: patent EP1401829B1
